assay.target: AgBbc1
run.description: SPOT peptide array binding signal intensity (averaged, normalized) (arbitrary units (background-subtracted, floor 0; scale differs between SH3 domains)); higher = stronger binding of the SH3 domain to the peptide
assay.readout: SPOT peptide array binding signal intensity

binder	limit.qualifier	observed.result
KTITLEVESSDTIDN	≤	0
VQPTAAPATPPRHIS	≤	0
ISPPASPPPEFDFSK	≤	0
STPQTMRQAPKRPDA	=	206
SSTPTTPERPKRKSG	=	2110
QTMRQAPKRPDADVA	=	170
PALPSLPPPPLLNVD	=	0.5
HRRRRVFSIPSLKSI	=	88.2
APKHAPPPVPNETDN	≤	0
YSRKKLPVVLSKMTL	=	21.5
RPVPPPPPMRTTTEG	=	814
AERNYAPRLPRRETS	=	69.8
GKLKHIPRRPYEIER	=	102
NFFRKKLGIPRKLKR	=	12
MKRSRPSRSIPYTTP	=	65.5
HVRRSILALPLGVLL	=	2.75
IVNKPLPPLPVAGSS	≤	0
ISRRRLPVIMHRLKM	=	16.2
VPKEPAPAPPPEPDM	=	0.5

The reported numbers originate from the supplement of paper PMC4466140.
